Kindly state IC50 for each of the entries shown.
- TARGET OF ASSAY: Human Cav3.2 (Homo sapiens, UniProt O95180)
- Sequence (O95180 whole entry): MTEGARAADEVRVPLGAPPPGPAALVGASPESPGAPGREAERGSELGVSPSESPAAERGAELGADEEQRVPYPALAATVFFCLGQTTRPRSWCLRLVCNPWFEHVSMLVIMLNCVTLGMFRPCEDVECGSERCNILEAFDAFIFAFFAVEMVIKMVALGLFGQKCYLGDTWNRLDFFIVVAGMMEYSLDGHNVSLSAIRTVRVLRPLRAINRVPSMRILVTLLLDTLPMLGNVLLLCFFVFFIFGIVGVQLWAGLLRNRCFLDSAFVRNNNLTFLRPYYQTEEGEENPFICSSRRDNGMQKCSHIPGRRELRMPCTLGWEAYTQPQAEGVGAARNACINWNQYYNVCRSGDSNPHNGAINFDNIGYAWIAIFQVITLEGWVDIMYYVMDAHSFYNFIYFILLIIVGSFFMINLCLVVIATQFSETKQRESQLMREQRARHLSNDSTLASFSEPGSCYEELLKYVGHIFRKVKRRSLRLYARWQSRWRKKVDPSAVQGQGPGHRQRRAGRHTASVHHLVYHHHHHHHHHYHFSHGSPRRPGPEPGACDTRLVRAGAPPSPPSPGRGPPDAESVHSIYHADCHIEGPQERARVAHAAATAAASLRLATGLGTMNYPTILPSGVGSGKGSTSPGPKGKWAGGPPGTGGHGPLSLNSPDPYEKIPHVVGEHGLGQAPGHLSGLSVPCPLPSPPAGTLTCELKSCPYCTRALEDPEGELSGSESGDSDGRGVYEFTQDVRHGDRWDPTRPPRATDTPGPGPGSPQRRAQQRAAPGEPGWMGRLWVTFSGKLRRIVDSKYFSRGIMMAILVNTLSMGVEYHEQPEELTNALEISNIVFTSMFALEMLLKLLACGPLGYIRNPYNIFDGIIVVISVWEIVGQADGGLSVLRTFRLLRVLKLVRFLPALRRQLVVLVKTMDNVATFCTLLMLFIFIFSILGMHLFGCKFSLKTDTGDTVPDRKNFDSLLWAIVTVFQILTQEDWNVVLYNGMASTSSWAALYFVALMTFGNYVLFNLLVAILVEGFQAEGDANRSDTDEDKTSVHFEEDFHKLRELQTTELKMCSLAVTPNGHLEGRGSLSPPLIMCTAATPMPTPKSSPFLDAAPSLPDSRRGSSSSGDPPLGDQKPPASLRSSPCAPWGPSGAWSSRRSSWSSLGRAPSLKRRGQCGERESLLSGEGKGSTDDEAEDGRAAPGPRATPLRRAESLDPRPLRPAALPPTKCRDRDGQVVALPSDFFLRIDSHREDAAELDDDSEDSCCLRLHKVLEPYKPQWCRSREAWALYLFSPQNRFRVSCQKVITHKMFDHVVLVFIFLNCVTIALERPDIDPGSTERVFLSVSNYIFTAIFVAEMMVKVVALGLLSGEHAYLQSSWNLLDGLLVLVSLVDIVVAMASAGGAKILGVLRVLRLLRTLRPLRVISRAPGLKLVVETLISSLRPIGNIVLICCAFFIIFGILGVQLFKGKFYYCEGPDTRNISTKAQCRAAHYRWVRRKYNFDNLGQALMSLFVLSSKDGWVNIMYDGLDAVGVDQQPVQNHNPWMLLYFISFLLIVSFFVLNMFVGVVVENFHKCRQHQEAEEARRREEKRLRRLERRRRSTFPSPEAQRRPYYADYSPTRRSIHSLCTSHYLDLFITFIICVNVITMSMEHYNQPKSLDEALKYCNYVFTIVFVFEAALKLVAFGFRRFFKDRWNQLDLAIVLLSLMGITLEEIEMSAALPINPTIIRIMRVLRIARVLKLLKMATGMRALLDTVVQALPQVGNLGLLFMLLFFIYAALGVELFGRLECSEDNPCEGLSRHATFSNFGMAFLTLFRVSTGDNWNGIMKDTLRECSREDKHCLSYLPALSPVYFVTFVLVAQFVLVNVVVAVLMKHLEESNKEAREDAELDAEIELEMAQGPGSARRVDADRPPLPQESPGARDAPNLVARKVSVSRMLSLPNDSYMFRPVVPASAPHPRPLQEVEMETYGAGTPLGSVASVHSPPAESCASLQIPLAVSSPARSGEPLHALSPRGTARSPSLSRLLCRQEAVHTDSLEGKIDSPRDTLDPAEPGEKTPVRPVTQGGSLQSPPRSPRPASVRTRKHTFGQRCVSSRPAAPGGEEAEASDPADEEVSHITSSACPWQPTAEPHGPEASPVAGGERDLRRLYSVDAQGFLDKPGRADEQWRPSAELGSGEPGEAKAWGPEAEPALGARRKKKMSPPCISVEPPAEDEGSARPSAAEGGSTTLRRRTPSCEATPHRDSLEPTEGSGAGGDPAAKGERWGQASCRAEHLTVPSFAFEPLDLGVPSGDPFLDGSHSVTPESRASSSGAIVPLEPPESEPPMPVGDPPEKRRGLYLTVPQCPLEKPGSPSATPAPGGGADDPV
- TEST DETAILS: Electrophysiologic (whole-cell patch-clamp) assessment of calcium channel activity, HEK293 cells stably expressing hCav3.2
- CONDITION CONTEXT: −77 mV, GeoMean

Below are some compounds; for each one, tell me its IC50.
1. O=C(CN1CCCC(c2ccccc2)(c2ccccc2)C1=O)N1CC2(CCNCC2)C1 [Example 7]
2. O=C(CN1CCC(c2ccc(F)cc2)(c2ccc(F)cc2)C1=O)N(C1CCNCC1)C1CC1 [Example 17]
3. O=C(CN1CCCC(c2ccccc2)(c2ccccc2)C1=O)N1CCNCC1 [Example 12]
4. O=C(CN1CCC(c2ccccc2)(c2ccccc2)C1=O)N1CCN(C2CCCCC2)CC1 [Example 21]
5. CN1CCN(C(=O)CN2CCCC(c3ccccc3)(c3ccccc3)C2=O)CC1 [Example 22]
6. O=C(CN1CCC(c2ccc(F)cc2)(c2ccc(F)cc2)C1=O)NC1CNC1 [Example 16]
7. O=C(CN1CCCC(c2ccccc2)(c2ccccc2)C1=O)N1C[C@@H]2CN[C@@H](C2)C1 (relative stereo) [Example 13]

5.8 µM
4.07 µM
> 10 µM
1 µM
> 10 µM
0.82 µM
3.6 µM

IC50 measured on O=C(CN1CCCC(c2ccccc2)(c2ccccc2)C1=O)NC1CCNCC1 [Example 1] = > 10 µM

* * *

- TARGET OF ASSAY: Human Cav3.2 (Homo sapiens)
- TEST DETAILS: Electrophysiologic (whole-cell patch-clamp) assessment of calcium channel activity, HEK293 cells stably expressing hCav3.2
- CONDITION CONTEXT: −77 mV, GeoMean
Could you please report measured pIC50 for the items listed next?
One number for each entry, as −log10 of the molar value.

Would you please look over these solved cases?
Query O=C(CN1CCCC(c2ccccc2)(c2ccccc2)C1=O)NC1CNC1 yields pIC50 of 6.25

response.value for O=C(CN1CCC(c2ccc(F)cc2)(c2ccc(F)cc2)C1=O)N(C1CCCC1)C1CCNCC1 (field: pIC50) = 5.96

// pIC50 value for O=C(CN1CCC(c2ccc(F)cc2)(c2ccc(F)cc2)C1=O)N1CCNCC1 : 5.11

The compound O=C(CN1CCCC(c2ccccc2)(c2ccccc2)C1=O)NC[C@@H]1CCCN1 showed pIC50 equal to 5.23

Short answer for O=C(CN1CCCC(c2ccccc2)(c2ccccc2)C1=O)N1C[C@@H]2CCCN[C@@H]2C1 : pIC50 was 5.36

For each of the compounds below, note its pIC50.
1. O=C(CN1CCCC(c2ccccc2)(c2ccccc2)C1=O)N1CC2CNCC2C1 (stereo not shown)
2. CC1(C)C(=O)NCCN1C(=O)CN1CCCC(c2ccccc2)(c2ccccc2)C1=O
3. O=C(CN1CCC(c2ccc(F)cc2)(c2ccc(F)cc2)C1=O)N(C1CCC1)C1CCNCC1
4. O=C(CN1CCCC(c2ccccc2)(c2ccccc2)C1=O)N1CCC[C@H]2CNC[C@H]21

[5.27, 5.56, 5.04, 5.80]

Looking up O=C(CN1CCC(c2ccc(F)cc2)(c2ccc(F)cc2)C1=O)N1CCN2CCC[C@@H]2C1 , I see its pIC50 listed as 5.67

* * *

Give inhibition in vivo at 30 mg/kg for every item shown.
- Test system: Sprague Dawley rats
- TEST DETAILS: Capsaicin induced secondary mechanical hyperalgesia model
- Format: in vivo
- CONDITION CONTEXT: po, 1 h; 30 mg/kg p.o., 60 minutes before testing; relative to vehicle; secondary mechanical hyperalgesia 180 minutes after capsaicin; rat
Give bare numbers, in %.

The compound O=C(CN1CCC(c2ccc(F)cc2)(c2ccc(F)cc2)C1=O)N1CCNCC1 [Example 14] showed inhibition in vivo at 30 mg/kg equal to 52

For every item below, please supply its inhibition in vivo at 30 mg/kg.
1. O=C(CN1CCCC(c2ccccc2)(c2ccccc2)C1=O)N1CC2CNCC2C1 (stereo not shown) [Example 6]
2. O=C(CN1CCCC(c2ccccc2)(c2ccccc2)C1=O)N1CCNCC1 [Example 12]
3. O=C(CN1CCCC(c2ccccc2)(c2ccccc2)C1=O)N1C[C@H]2CCCN[C@H]2C1 [Example 4]
4. O=C(CN1CCCC(c2ccccc2)(c2ccccc2)C1=O)N1C[C@@H]2CN[C@@H](C2)C1 (relative stereo) [Example 13]
5. O=C(CN1CCCC(c2ccccc2)(c2ccccc2)C1=O)N1CC2(CCNCC2)C1 [Example 7]
6. O=C(CN1CCCC(c2ccccc2)(c2ccccc2)C1=O)N1C[C@@H]2CCCN[C@@H]2C1 [Example 3]
7. O=C(CN1CCCC(c2ccc(F)cc2)(c2ccc(F)cc2)C1=O)N1CCNCC1 [Example 23]
8. O=C(CN1CCC(c2ccc(F)cc2)(c2ccc(F)cc2)C1=O)N(C1CCC1)C1CCNCC1 [Example 18]

[74, 41, 19, 60, 19, 31, -2, 5]

Per the record, O=C(CN1CCC(c2ccccc2)(c2ccccc2)C1=O)N1CCNCC1 [Example 24] has inhibition in vivo at 30 mg/kg of 52

Data provenance is patent US8815869B2.
